# Assay: Selectivity index, ratio of CC50 for human HOS cells to EC50 for HIV-1 harboring wild type integrase infected in human HOS cells
# Type: toxicity, cell-based
# Experimental conditions: read-out: Ratio CC50/EC50
Each entry below carries its reported selectivity ratio.

Mol	Value comparator	selectivity ratio
O=C(NCc1ccc(F)cc1F)c1c(NCCO)c2cccnc2n(O)c1=O	=	4620
O=C(NCc1ccc(F)cc1F)c1c(NCCCCc2ccccc2)c2cccnc2n(O)c1=O	=	2040
O=C(NCc1ccc(F)cc1F)c1c(N2CCOCC2)c2cccnc2n(O)c1=O	=	7
O=C(NCc1ccc(F)cc1F)c1c(Nc2ccc(-c3ccccc3)cc2)c2cccnc2n(O)c1=O	>	672
O=C(NCc1ccc(F)cc1F)c1c(Nc2ccc3c(c2)Cc2ccccc2-3)c2cccnc2n(O)c1=O	>	1460
N#Cc1ccc(-c2ccc(Nc3c(C(=O)NCc4ccc(F)cc4F)c(=O)n(O)c4ncccc34)cc2)cc1	>	2030
CCOC(=O)[C@@H]1CCCN1c1c(C(=O)NCc2ccc(F)cc2F)c(=O)n(O)c2ncccc12	=	31
Nc1ccc(-c2ccc(Nc3c(C(=O)NCc4ccc(F)cc4F)c(=O)n(O)c4ncccc34)cc2)cc1	>	39700
COC(=O)CNc1c(C(=O)NCc2ccc(F)cc2F)c(=O)n(O)c2ncccc12	>	65800
CN(C)c1c(C(=O)NCc2ccc(F)cc2F)c(=O)n(O)c2ncccc12	=	49
O=C(NCc1ccc(F)cc1F)c1c(NC2CCCCCC2)c2cccnc2n(O)c1=O	=	5670
CC(=O)OCCNc1c(C(=O)NCc2ccc(F)cc2F)c(=O)n(O)c2ncccc12	>	55600
